Could you please report measured EC50 for the items listed next?
Tested on: HCMV (strain AD169)
Procedure Text: Antiviral assay: HCMV antigen ELISA in infected human foreskin fibroblasts (MRHF)
Type: cell-based, human cytomegalovirus
Cond: Human betaherpesvirus 5, Fibroblast; MRHF cells, HCMV AD169, moi 0.2, 96 hours; read-out: HCMV cell EC50
Use µM as the unit, but write only the number.

Exercise: Write EC50 of COc1ccc2[nH]c([S+]([O-])Cc3c(N)cc(C)c(OC)c3C)nc2c1 (centres unmarked) ; system used: HCMV (strain AD169)
Solution: 22

Exercise: Give EC50 only, for Nc1ccccc1C[S+]([O-])c1nc2cc(Cl)ccc2[nH]1 (centres unmarked) , using HCMV (strain AD169) data.
Solution: 23

Exercise: Jot down EC50 (HCMV (strain AD169)) of COc1ccc2[nH]c([S+]([O-])Cc3ncc(C)c(OC)c3C)nc2c1 (centres unmarked) [omeprazole, reference compound] .
Solution: 93

Exercise: Quote EC50 with test system HCMV (strain AD169) for Cc1ccc(C[S+]([O-])c2nc3ccccc3[nH]2)c(N)c1C (centres unmarked) [Example 53, hydrate]
Solution: 13

Exercise: Find the measured EC50 of Cc1ccc2[nH]c([S+]([O-])Cc3ccccc3N)nc2c1 (centres unmarked) with HCMV (strain AD169) as test system.
Solution: 59

Data provenance is patent US6906078B2.
